Test: Cytotoxicity against HEK293T cells incubated for 72 hrs by CCK-8 assay
Details: human
Reported IC50 at 72 h values for a set of compounds

Use these answered entries as a reference point.
[
  {
    "smiles repr": "O=C(NO)c1cnc(N2CCC3(CN(Cc4ccccn4)C3)C2)nc1",
    "IC50 at 72 h": "> 20 µM"
  },
  {
    "smiles repr": "Cn1cc(CN2CC3(CCN(c4ncc(C(=O)NO)cn4)C3)C2)c2cccnc21",
    "IC50 at 72 h": "6.17 µM"
  }
]

Query :: Which IC50 at 72 h is listed for `O=C(NO)c1cnc(N2CCC3(CN(Cc4ccc5ncccc5c4)C3)C2)nc1` ?
Result :: 1.74 µM

Query :: Same for `Cl.O=C(NO)c1cnc(N2CCC3(CN(Cc4cnc5ccccc5c4)C3)C2)nc1`
Result :: 3.62 µM

Query :: Entry `O=C(NO)c1cnc(N2CCC3(CN(Cc4cccc5cnccc45)C3)C2)nc1` please
Result :: 1.61 µM

Query :: And the next one, `O=C(NO)c1cnc(N2CCC3(CN(Cc4ccncc4)C3)C2)nc1` ?
Result :: > 20 µM

Query :: Param item: `O=C(NO)c1cnc(N2CCC3(CN(Cc4cc5ccccc5s4)C3)C2)nc1`
Result :: 4.59 µM

Query :: Follow-up item: `O=C(NO)c1cnc(N2CCC3(CN(Cc4cccc5ccccc45)C3)C2)nc1`
Result :: 2.7 µM

Query :: Same question for `O=C(NO)c1cnc(N2CCC3(CN(CC4CCCCC4)C3)C2)nc1` please.
Result :: 3.56 µM

Query :: Please do the same for `O=C(NO)c1cnc(N2CCC3(CN(Cc4csc5ccccc45)C3)C2)nc1` as well.
Result :: 2.58 µM

Query :: Also `O=C(NO)c1cnc(N2CCC3(CN(Cc4cccc5cccnc45)C3)C2)nc1` , if possible.
Result :: 5.58 µM

Query :: Now give it for `O=C(NO)c1cnc(N2CCC3(CN(Cc4cnc5ccccn45)C3)C2)nc1` too.
Result :: 2.37 µM

Query :: Can you check `O=C(NO)c1cnc(N2CCC3(CN(Cc4cc5ccccc5o4)C3)C2)nc1` next?
Result :: 5.62 µM

* * *

selectivity ratio overview
Assay: Selectivity index, ratio of IC50 for cytotoxicity against human HepG2 cells to IC50 for antimalarial activity against asexual blood stage wild-type Plasmodium falciparum 3D7
Type: toxicity, cell-based
Settings: read-out: Ratio IC50

Examples with their reported selectivity ratio follow.
[
  {
    "smiles repr": "Cl.Cn1c(CN2CC3(CCN(c4ncc(C(=O)NO)cn4)C3)C2)nc2ccccc21",
    "selectivity ratio": "> 5140"
  },
  {
    "smiles repr": "Cl.Cn1cc(CN2CC3(CCN(c4ncc(C(=O)NO)cn4)C3)C2)c2ccc(Br)cc21",
    "selectivity ratio": 381
  },
  {
    "smiles repr": "O=C(NO)c1cnc(N2CCC3(CN(Cc4ccc5ncccc5c4)C3)C2)nc1",
    "selectivity ratio": 90
  },
  {
    "smiles repr": "O=C(NO)c1cnc(N2CCC3(CN(Cc4ccsc4)C3)C2)nc1",
    "selectivity ratio": 394
  },
  {
    "smiles repr": "O=C(NO)c1cnc(N2CCC3(CN(Cc4ccoc4)C3)C2)nc1",
    "selectivity ratio": 160
  }
]

Query :: I have this compound here, `Cn1cc(CN2CC3(CCN(c4ncc(C(=O)NO)cn4)C3)C2)c2cnccc21` , and I need its recorded selectivity ratio.
Result :: > 908

Query :: Note, next up: `O=C(NO)c1cnc(N2CCC3(CN(Cc4cccc5cnccc45)C3)C2)nc1`
Result :: 133

Query :: Could you do the same for `O=C(NO)c1cnc(N2CCC3(CN(Cc4cccc5ccccc45)C3)C2)nc1` , please?
Result :: > 173
